B1: CPEB3 Ribozyme (parent)
chain: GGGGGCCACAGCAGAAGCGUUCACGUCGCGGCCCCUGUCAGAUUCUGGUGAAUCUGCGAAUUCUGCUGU

variants of: B1; assay: self-cleavage, relative activity (ratio to wild type); higher = more cleavage; co-transcriptional
Classification field. Basis: self-cleavage. Definitions: zone 1 (below 0.4), zone 2 (0.4 to below 0.9), zone 3 (0.9 or more)

var	labelValue
C34G U69C	zone 3

### Prompt Please indicate the class for A8C A23U based on its self-cleavage.
### Response zone 3

### Prompt GET /class?item= C34A G50U
### Response zone 2

### Prompt Category lookup for the variant C6A G47A
### Response zone 2

### Prompt Given G3U G28C , name the class its self-cleavage places it in.
### Response zone 1

### Prompt // bin(item) where item = G37A A59G
### Response zone 1

Values compiled from the RNAGym collection of RNA variant scans (doi:10.7554/elife.80360).
